attribute-measured: melting point

CCn1cnc2c(Nc3ccc(NC(=O)OC)cc3)nc(N[C@H]3CC[C@H](O)CC3)nc21 :: 131 to 135 °C

// melting point lookup, key: CC(C)n1cnc2c(Nc3cccc(NC(=O)C#Cc4ccc(F)cc4)c3)nc(NC3CCC(O)CC3)nc21 (stereo not shown) 145 to 147 °C

Try CCn1cnc2c(Nc3cccc(NC(=O)C#Cc4c(Cl)cccc4Cl)c3)nc(N[C@H]3CC[C@H](O)CC3)nc21 next. 234 to 236 °C

Try CCn1cnc2c(Nc3cccc(NC(=O)C#Cc4cccc(C(F)(F)F)c4)c3)nc(NC3CCC(O)CC3)nc21 (stereo not shown) next. 156 to 168 °C

Try CCn1cnc2c(Nc3ccc(NC(=O)Oc4ccccc4)cc3)nc(N[C@H]3CC[C@H](O)CC3)nc21 next. 135 to 139 °C

Try COc1ccc(C#CC(=O)Nc2cccc(Nc3nc(NC4CCC(O)CC4)nc4c3ncn4C(C)C)c2)cc1 (stereo not shown) next. 246 to 248 °C

Try CCn1cnc2c(Nc3cccc(NC(=O)OC)c3)nc(N[C@H]3CC[C@H](O)CC3)nc21 next. 214 to 217 °C
